pIC50: −log10 of the molar value.
These molecules were tested on human FGFR4 protein (460-802 amino acids) (Homo sapiens (Human)); pIC50 is the recorded read-out.
Sequence (P22455 460-802): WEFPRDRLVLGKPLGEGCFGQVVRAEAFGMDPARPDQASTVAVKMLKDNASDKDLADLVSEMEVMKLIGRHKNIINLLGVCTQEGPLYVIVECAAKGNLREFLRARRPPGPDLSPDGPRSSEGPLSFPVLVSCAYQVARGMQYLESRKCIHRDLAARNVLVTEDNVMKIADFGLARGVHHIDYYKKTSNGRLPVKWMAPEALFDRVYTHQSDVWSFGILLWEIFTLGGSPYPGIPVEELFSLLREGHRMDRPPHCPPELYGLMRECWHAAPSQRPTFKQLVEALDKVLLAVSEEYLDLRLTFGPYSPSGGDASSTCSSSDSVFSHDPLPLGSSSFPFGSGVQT
READOUT: pIC50

MOLECULE: C=CC(=O)Nc1ccccc1-c1n[nH]c2c1CCC(c1c(F)c(OC)cc(OC)c1F)C2 (stereo not drawn) [Compound 093]
pIC50: 7.53

[P] C=CC(=O)Nc1cnn(C)c1-c1n[nH]c2c1CC[C@@H](c1cc(OC)cc(OC)c1)C2 (single isomer, unassigned) [Compound 310-P2]
[Q] C=CC(=O)Nc1ccc(N2CCN(C)CC2)cc1-c1n[nH]c2c1CC[C@@H](c1c(Cl)c(OC)cc(OC)c1Cl)C2 (single isomer, unassigned) [Compound 283-P2]
Query: Of P and Q , which one carries the higher reported pIC50? In your reply, give the label of the chosen option.
Response: Q
(Q: 7.35, P: 6.77)

====

- TESTED ON: human FGFR4 protein (460-802 amino acids) (Homo sapiens (Human))
READOUT: IC50 (nM)

COMPOUND: C=CC(=O)Nc1ccccc1-c1n[nH]c2c1CCC(c1cc(OC)cc(OC)c1F)C2 (stereo not drawn)
TESTED ON: human FGFR4 protein (460-802 amino acids) (Homo sapiens (Human))
UNIT ANNOTATION: nM
MEASURED VALUE: 158

[1] C=CC(=O)Nc1ccc(Cl)cc1-c1n[nH]c2c1CC[C@@H](c1c(Cl)c(OC)cc(OC)c1Cl)C2 (single isomer, unassigned) [Compound 287-P1]
[2] C=CC(=O)Nc1ccc(Cl)cc1-c1n[nH]c2c1CC[C@@H](c1c(Cl)c(OC)cc(OC)c1Cl)C2 (single isomer, unassigned) [Compound 287-P2]
[3] C=CC(=O)Nc1ccc(F)cc1-c1n[nH]c2c1CCC(c1c(Cl)c(OC)cc(OC)c1Cl)=C2
[4] C=CC(=O)Nc1cnn(C)c1-c1n[nH]c2c1CC[C@@H](c1c(F)c(OC)cc(OC)c1F)C2 (single isomer, unassigned) [Compound 281-P2]
[5] C=CC(=O)Nc1ccc(N2CCN(C)CC2)cc1-c1n[nH]c2c1CC[C@@H](c1c(F)c(OC)cc(OC)c1F)C2 (single isomer, unassigned) [Compound 301-P2]
Query: Ordering: ascending IC50. Field: ranking. Enter the labels in the order requested.
Response: 4, 5, 2, 1, 3
(4: 2.96 nM, 5: 11.8 nM, 2: 91.1 nM, 1: 158 nM, 3: 236 nM)

====

- TESTED ON: human FGFR4 protein (460-802 amino acids) (Homo sapiens (Human))
pIC50: −log10 of the molar value.
READOUT: pIC50

[I] C=CC(=O)Nc1cnn(C)c1-c1n[nH]c2c1CC[C@@H](c1c(F)c(OC)cc(OC)c1Cl)C2 (single isomer, unassigned) [Compound 303-P1]
[II] C=CC(=O)Nc1ccc(N2CCN(C)CC2)cc1-c1n[nH]c2c1CC[C@@H](c1c(Cl)c(OC)cc(OC)c1Cl)C2 (single isomer, unassigned) [Compound 283-P1]
[III] C=CC(=O)Nc1cnn(C)c1-c1n[nH]c2c1CC[C@@H](c1cc(OC)cc(OC)c1)C2 (single isomer, unassigned) [Compound 310-P1]
Query: List the 3 compounds shown above, ordered by increasing pIC50. Field: ranking. Enter the labels in the order requested.
Response: III, II, I
